- tested-target: CFTR (F508del/MF-HBE cells) (Homo sapiens, UniProt P13569, DEL508-508)
- Construct: human bronchial epithelial (HBE) cells derived from CF subjects heterozygous for F508del and a minimal function CFTR mutation; endogenous in cells
- Sequence (P13569 with tags, fused parts or gaps DEL508-508): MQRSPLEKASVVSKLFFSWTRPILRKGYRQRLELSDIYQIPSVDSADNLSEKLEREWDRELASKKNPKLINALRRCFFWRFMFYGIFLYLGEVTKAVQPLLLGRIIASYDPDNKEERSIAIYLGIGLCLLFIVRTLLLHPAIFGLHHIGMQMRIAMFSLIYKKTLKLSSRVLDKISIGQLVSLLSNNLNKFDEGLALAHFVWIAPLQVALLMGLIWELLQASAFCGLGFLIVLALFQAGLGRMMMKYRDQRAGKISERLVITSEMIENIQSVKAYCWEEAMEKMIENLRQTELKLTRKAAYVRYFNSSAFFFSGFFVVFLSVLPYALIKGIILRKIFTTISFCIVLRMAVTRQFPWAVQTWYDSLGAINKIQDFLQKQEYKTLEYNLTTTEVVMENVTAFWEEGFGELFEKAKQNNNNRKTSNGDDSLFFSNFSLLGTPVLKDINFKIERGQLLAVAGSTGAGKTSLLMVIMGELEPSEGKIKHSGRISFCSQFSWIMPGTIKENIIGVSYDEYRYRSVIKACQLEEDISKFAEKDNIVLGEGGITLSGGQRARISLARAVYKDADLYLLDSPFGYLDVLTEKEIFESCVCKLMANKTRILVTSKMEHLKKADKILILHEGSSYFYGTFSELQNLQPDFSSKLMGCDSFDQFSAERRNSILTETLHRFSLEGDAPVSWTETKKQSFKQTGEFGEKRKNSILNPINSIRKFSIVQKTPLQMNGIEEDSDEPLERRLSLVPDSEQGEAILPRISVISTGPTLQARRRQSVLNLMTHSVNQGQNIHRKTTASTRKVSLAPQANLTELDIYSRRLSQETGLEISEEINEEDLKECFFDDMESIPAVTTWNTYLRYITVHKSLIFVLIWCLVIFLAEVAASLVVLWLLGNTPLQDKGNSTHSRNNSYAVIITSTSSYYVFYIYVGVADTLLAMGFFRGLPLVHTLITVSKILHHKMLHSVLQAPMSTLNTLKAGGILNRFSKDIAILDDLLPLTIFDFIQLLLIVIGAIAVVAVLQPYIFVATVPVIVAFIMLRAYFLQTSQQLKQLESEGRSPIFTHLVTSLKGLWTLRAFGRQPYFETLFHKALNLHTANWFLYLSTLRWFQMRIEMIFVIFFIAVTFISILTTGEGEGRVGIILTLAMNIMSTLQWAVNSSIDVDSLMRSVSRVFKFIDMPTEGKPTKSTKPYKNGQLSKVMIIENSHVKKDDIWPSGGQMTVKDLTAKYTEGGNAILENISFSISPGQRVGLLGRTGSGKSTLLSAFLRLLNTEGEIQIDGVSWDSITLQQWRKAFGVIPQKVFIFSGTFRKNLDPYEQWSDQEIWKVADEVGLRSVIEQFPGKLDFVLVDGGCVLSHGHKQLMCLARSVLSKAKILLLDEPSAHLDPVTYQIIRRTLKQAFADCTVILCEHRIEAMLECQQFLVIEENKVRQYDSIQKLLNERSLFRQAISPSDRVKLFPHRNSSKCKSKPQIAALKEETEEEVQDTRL
- experiment-notes: Ussing chamber assay of CFTR-mediated short-circuit currents (identification of potentiator compounds)
- reported-conditions: CFTR-mediated ISC in F508del/MF-HBE cells; incubated 18-24 hours at 37° C. with 10 μM (14S)-8-[3-(2-{dispiro[2.0.2.1]heptan-7-yl}ethoxy)-1H-pyrazol-1-yl]-...-2,2,4-trione, 20% human serum
pEC50: −log10 of the molar value.
recorded-endpoint: pEC50

>>> observed_value("CC1(C)CCC[C@@H](O)C[C@](O)(C(F)(F)F)C2=NN=C(O2)c2nc(c(C(F)(F)F)cc2N)N1")
"> 6.30"
>>> observed_value("CNc1cc(C(F)(F)F)c2nc1-c1nnc(o1)[C@@](O)(C(F)(F)F)CCCCC[C@@H]1CCCN21")
"> 6.30"
>>> observed_value("Nc1cc([S+]([O-])c2ccc(OC(F)(F)F)cc2)c2nc1-c1nnc(o1)C(O)(C(F)(F)F)CCCCC[C@@H]1CCCN21 (mixture of isomers)")
"> 6.30"
